Items are presented alongside their recorded Glycaemia evolution.
tested on: Rattus norvegicus; assay: Percent glycaemia evolution at 20 mg/kg at 2 hr after a sharp administration (J1) in Wistar rats; format: functional
READOUT TYPE: Glycaemia evolution (%)

>  <SMILES REPR>
CCOc1cc(C(=O)NN=C(N)N)nc2ccc(F)cc12.Cl

>  <MEASURED NUMBER>
6

$$$$
>  <SMILES REPR>
NC(=O)NNC(=O)c1cc(O)c2cc(F)ccc2n1

>  <MEASURED NUMBER>
-6

$$$$
>  <SMILES REPR>
COc1ccc2ncc(C(=O)N=C(N)N)c(O)c2c1.Cl

>  <MEASURED NUMBER>
5

$$$$
